# Measured On: Calmodulin-1 (Homo sapiens) (UniProt P0DP23)
# Experiment Description: CALM1 binders on microarrays, EGTA buffer, profiling panel, biochemical, small-molecule microarray, Cy5-labelled CALM1 (AID 1111);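 note: labelled calmodulin applied in Tris saline Tween buffer holding calcium plus EGTA and DTT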
# Condition Label: Cy5-CALM1 binding fluorescence, higher = more signal
Assign class by composite z-score: not lower than 0.5 means Met; lower than 0.5 means Not met.

C=CC[C@@]1(C(=O)N2CCOCC2)N=C(c2ccc(OCCCO)cc2)O[C@@H]1c1ccccc1 : Not met
CO[C@H]1COC(=O)[C@@H](OCc2ccccc2)C=C[C@H](C)[C@@H](OC)COC(=O)[C@H](OCc2ccccc2)C=C[C@@H]1C : Not met
CCOC(=O)C[C@H]1[C@H](OC(=O)c2cc3ccccc3oc2=O)[C@@H](NC(=O)c2ccc3ccccc3c2)c2cc(OCCCO)ccc2N1C(=O)c1ccc2ccccc2n1 : Not met
NC(=O)NCC#Cc1ccc2c(c1)[C@]1(C(=O)N2)[C@H](C(=O)N2CCCCCCC2)[C@H]2C(=O)O[C@H](c3ccccc3)[C@H](c3ccccc3)N2[C@@H]1c1ccccc1OCCO : Met
O=C1C2C=CC(C(O)Cc3ccccc3)N(Nc3ccc([N+](=O)[O-])cc3)C2C(=O)N1c1ccccc1 (stereo not drawn) : Not met
CO[C@H]1O[C@H](CO)[C@@H](OC(=O)CCc2ccccc2)[C@@H]2OC(=O)[C@H](Cc3cccc(Br)c3)C/C=C/C[C@@H](Cc3cccc(Br)c3)C(=O)O[C@@H]12 : Not met
CC(C)NC(=O)[C@@]1(Cc2ccccc2I)c2ccccc2C(=O)N(C2CCCCC2)[C@H]1c1ccc(CO)cc1 : Met
COC(=O)[C@H]1[C@@H]2COc3ccccc3[C@H]2N[C@H]1C(=O)OC : Met
Cc1ccc(S[C@]2(C(=O)NCCCN(C)C)CC(=O)N(C3CCCCC3)[C@@H]2c2ccc(CO)cc2I)cc1 : Not met
CC(C)(C)OC(=O)CC[C@@]1(C(=O)NCc2ccccc2)N=C(c2ccc(OCCCO)cc2)O[C@@H]1c1ccccc1 : Met
CC1CC/C=C\[C@H]2OC34C=CCN(Cn5nnc6ccccc65)C(=O)[C@H]3N(C(C)CO)C(=O)[C@@H]4C2C(=O)O1 (stereo partly drawn) : Not met
C=CCC(OC(C)=O)[C@@H]1[C@@H](N(Cc2ccc(-c3ccccc3)cc2)C(=O)c2ccc(-c3ccccc3)cc2)c2cc(OCCCO)ccc2N1C(=O)Cc1ccc(OC)cc1 (stereo partly drawn) : Not met
C#CCCCON=C1C[C@@H](O)[C@@H](O)[C@@H]2[C@@H]3C(=O)N(Cc4ccc5c(c4)OCO5)C(=O)[C@@H]3CC[C@H]12 : Met
COc1ccc(CCN2C(=O)[C@@]3(c4ccc([N+](=O)[O-])cc4)CC(=O)N(CC45CC6CC(CC(C6)C4)C5)[C@@H]3c3ccc(CO)cc32)cc1 : Not met
COc1ccc(C(=O)Nc2ccc(CN3C(=O)[C@]4(O[C@H](CCn5cc(CCO)nn5)[C@@H]([Si](C)(C)c5ccc(OC)cc5)[C@@H]4C)c4ccccc43)cc2)cc1 : Met
CCOC(=O)[C@H]1C/C=C/C[C@H](C(=O)OCC)C(=O)O[C@H]2[C@@H](OC)O[C@H](CO)[C@@H](OC(=O)Nc3ccc(Br)cc3)[C@@H]2OC1=O : Met
O=C(NCC(O)CO)[C@]1(Cc2ccccc2)N=C(c2ccc(OCCCO)cc2)O[C@@H]1c1ccccc1 (stereo partly drawn) : Met
